- study target: HSP90/Cyclin-dependent kinase 6 (Mus musculus, UniProt P07901+P11499+Q64261)
- Sequence (Q64261 whole entry, other chains not shown): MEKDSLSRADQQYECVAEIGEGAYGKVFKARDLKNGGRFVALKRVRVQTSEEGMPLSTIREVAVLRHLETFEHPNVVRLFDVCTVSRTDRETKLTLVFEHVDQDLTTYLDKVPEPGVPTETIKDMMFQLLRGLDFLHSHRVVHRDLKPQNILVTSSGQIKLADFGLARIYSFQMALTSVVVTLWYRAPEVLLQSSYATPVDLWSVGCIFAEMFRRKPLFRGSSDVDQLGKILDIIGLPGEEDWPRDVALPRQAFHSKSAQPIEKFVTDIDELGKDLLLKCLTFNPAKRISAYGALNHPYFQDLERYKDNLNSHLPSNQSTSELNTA
- Sequence (P11499 whole entry, other chains not shown): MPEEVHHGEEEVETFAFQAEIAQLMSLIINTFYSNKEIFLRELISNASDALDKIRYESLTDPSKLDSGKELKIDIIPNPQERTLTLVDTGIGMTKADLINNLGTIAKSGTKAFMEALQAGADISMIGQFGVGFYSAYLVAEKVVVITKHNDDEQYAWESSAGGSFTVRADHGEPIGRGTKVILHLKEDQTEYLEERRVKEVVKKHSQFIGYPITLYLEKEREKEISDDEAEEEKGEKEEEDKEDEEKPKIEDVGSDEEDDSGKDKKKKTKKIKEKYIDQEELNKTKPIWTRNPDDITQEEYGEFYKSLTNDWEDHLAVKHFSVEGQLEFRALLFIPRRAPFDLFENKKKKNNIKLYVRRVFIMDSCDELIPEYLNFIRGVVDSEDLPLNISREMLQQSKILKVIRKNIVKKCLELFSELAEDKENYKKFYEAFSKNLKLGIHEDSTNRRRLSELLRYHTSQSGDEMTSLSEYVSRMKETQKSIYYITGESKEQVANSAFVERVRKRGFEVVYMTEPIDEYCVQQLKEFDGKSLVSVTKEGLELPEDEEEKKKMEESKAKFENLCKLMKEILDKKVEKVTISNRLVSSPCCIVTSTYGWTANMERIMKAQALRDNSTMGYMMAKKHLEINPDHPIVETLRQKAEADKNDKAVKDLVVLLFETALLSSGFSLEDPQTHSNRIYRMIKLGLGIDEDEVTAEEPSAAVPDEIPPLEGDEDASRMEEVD
- assay comment: HEMTAC activity at HSP90/CDK6 in mouse B16-F10 cells assessed as induction of […] degradation incubated for 24 hrs by Western blot analysis
pEC50: −log10 of the molar value.
# label = label 1 if pEC50 >= 7 else label 0

>>> cat("COc1c(C)cnc(Cn2cc(C#CCCn3cc(C(=O)NCCOCCNC(=O)CN4CCN(c5ccc(Nc6ncc7c(C)c(C(C)=O)c(=O)n(C8CCCC8)c7n6)nc5)CC4)nn3)c3c(Cl)nc(N)nc32)c1C")
"label 0"
>>> cat("COc1c(C)cnc(Cn2cc(C#CCCn3cc(CNC(=O)CN4CCN(c5ccc(Nc6ncc7c(C)c(C(C)=O)c(=O)n(C8CCCC8)c7n6)nc5)CC4)nn3)c3c(Cl)nc(N)nc32)c1C")
"label 1"
>>> cat("COc1c(C)cnc(Cn2cc(C#CCCn3cc(C(=O)NCCNC(=O)CN4CCN(c5ccc(Nc6ncc7c(C)c(C(C)=O)c(=O)n(C8CCCC8)c7n6)nc5)CC4)nn3)c3c(Cl)nc(N)nc32)c1C")
"label 0"
>>> cat("COc1c(C)cnc(Cn2cc(C#CCCn3cc(C(=O)NCCOCCOCCNC(=O)CN4CCN(c5ccc(Nc6ncc7c(C)c(C(C)=O)c(=O)n(C8CCCC8)c7n6)nc5)CC4)nn3)c3c(Cl)nc(N)nc32)c1C")
"label 0"

###

# maps each entry to its IC50
- Tested on: B16-F10
- assay comment: Cytotoxicity against mouse B16-F10 cells assessed as inhibition of cell growth incubated for 72 hrs by CCK-8 assay
- Assay type: functional, cell-based
- condition summary: B16-F10, 72 h
measured quantity: IC50 (nM)

>>> reported("COc1c(C)cnc(Cn2cc(C#CCCNC(=O)CN3CCN(c4ccc(Nc5ncc6c(C)c(C(C)=O)c(=O)n(C7CCCC7)c6n5)nc4)CC3)c3c(Cl)nc(N)nc32)c1C")
821
>>> reported("COc1c(C)cnc(Cn2cc(C#CCCn3cc(C(=O)NCCOCCOCCNC(=O)CN4CCN(c5ccc(Nc6ncc7c(C)c(C(C)=O)c(=O)n(C8CCCC8)c7n6)nc5)CC4)nn3)c3c(Cl)nc(N)nc32)c1C")
1000
>>> reported("COc1c(C)cnc(Cn2cc(C#CCCn3cc(C(=O)NCCOCCNC(=O)CN4CCN(c5ccc(Nc6ncc7c(C)c(C(C)=O)c(=O)n(C8CCCC8)c7n6)nc5)CC4)nn3)c3c(Cl)nc(N)nc32)c1C")
7880

###

- Tested on: A549
- assay comment: Cytotoxicity against human A549 cells assessed as inhibition of cell growth incubated for 72 hrs by CCK-8 assay
- Type: functional, cell-based
- condition summary: A549, 72 h
# maps each entry to its IC50
measured quantity: IC50 (nM)

>>> reported("COc1c(C)cnc(Cn2cnc3c(Cl)nc(N)nc32)c1C")
134
>>> reported("COc1c(C)cnc(Cn2cc(C#CCCn3cc(C(=O)NCCOCCOCCNC(=O)CN4CCN(c5ccc(Nc6ncc7c(C)c(C(C)=O)c(=O)n(C8CCCC8)c7n6)nc5)CC4)nn3)c3c(Cl)nc(N)nc32)c1C")
3550
>>> reported("COc1c(C)cnc(Cn2cc(C#CCCn3cc(C(=O)NCCOCCNC(=O)CN4CCN(c5ccc(Nc6ncc7c(C)c(C(C)=O)c(=O)n(C8CCCC8)c7n6)nc5)CC4)nn3)c3c(Cl)nc(N)nc32)c1C")
8890
>>> reported("COc1c(C)cnc(Cn2cc(C#CCCn3cc(C(=O)N4CCN(c5ccc(Nc6ncc7c(C)c(C(C)=O)c(=O)n(C8CCCC8)c7n6)nc5)CC4)nn3)c3c(Cl)nc(N)nc32)c1C")
2440
>>> reported("COc1c(C)cnc(Cn2cc(C#CCCn3cc(CNC(=O)CN4CCN(c5ccc(Nc6ncc7c(C)c(C(C)=O)c(=O)n(C8CCCC8)c7n6)nc5)CC4)nn3)c3c(Cl)nc(N)nc32)c1C")
860
>>> reported("COc1c(C)cnc(Cn2cc(C#CCCNC(=O)CN3CCN(c4ccc(Nc5ncc6c(C)c(C(C)=O)c(=O)n(C7CCCC7)c6n5)nc4)CC3)c3c(Cl)nc(N)nc32)c1C")
607

###

- study target: Heat shock protein HSP 90-alpha (Homo sapiens)
Field: label. Allowed values: 1.0 (Kd < 70 nM) or 0.0 (Kd >= 70 nM).

>>> cat("COc1c(C)cnc(Cn2cc(C#CCCn3cc(C(=O)NCCNC(=O)CN4CCN(c5ccc(Nc6ncc7c(C)c(C(C)=O)c(=O)n(C8CCCC8)c7n6)nc5)CC4)nn3)c3c(Cl)nc(N)nc32)c1C")
1.0
>>> cat("COc1c(C)cnc(Cn2cc(C#CCCNC(=O)CN3CCN(c4ccc(Nc5ncc6c(C)c(C(C)=O)c(=O)n(C7CCCC7)c6n5)nc4)CC3)c3c(Cl)nc(N)nc32)c1C")
1.0
>>> cat("COc1c(C)cnc(Cn2cc(C#CCCn3cc(C(=O)NCCOCCOCCNC(=O)CN4CCN(c5ccc(Nc6ncc7c(C)c(C(C)=O)c(=O)n(C8CCCC8)c7n6)nc5)CC4)nn3)c3c(Cl)nc(N)nc32)c1C")
1.0
>>> cat("COc1c(C)cnc(Cn2cc(C#CCCn3cc(C(=O)N4CCN(c5ccc(Nc6ncc7c(C)c(C(C)=O)c(=O)n(C8CCCC8)c7n6)nc5)CC4)nn3)c3c(Cl)nc(N)nc32)c1C")
0.0
>>> cat("COc1c(C)cnc(Cn2cc(C#CCCn3cc(CNC(=O)CN4CCN(c5ccc(Nc6ncc7c(C)c(C(C)=O)c(=O)n(C8CCCC8)c7n6)nc5)CC4)nn3)c3c(Cl)nc(N)nc32)c1C")
0.0

###

- Tested on: B16-F10
- assay comment: Cytotoxicity against mouse B16-F10 cells assessed as inhibition of cell growth incubated for 72 hrs by CCK-8 assay
- Assay type: functional, cell-based
- condition summary: B16-F10, 72 h
measured quantity: IC50 (nM)

>>> reported("COc1c(C)cnc(Cn2cc(C#CCCn3cc(C(=O)N4CCN(c5ccc(Nc6ncc7c(C)c(C(C)=O)c(=O)n(C8CCCC8)c7n6)nc5)CC4)nn3)c3c(Cl)nc(N)nc32)c1C")
546
>>> reported("COc1c(C)cnc(Cn2cnc3c(Cl)nc(N)nc32)c1C")
176
>>> reported("COc1c(C)cnc(Cn2cc(C#CCCn3cc(CNC(=O)CN4CCN(c5ccc(Nc6ncc7c(C)c(C(C)=O)c(=O)n(C8CCCC8)c7n6)nc5)CC4)nn3)c3c(Cl)nc(N)nc32)c1C")
112
>>> reported("COc1c(C)cnc(Cn2cc(C#CCCn3cc(C(=O)NCCNC(=O)CN4CCN(c5ccc(Nc6ncc7c(C)c(C(C)=O)c(=O)n(C8CCCC8)c7n6)nc5)CC4)nn3)c3c(Cl)nc(N)nc32)c1C")
6820

###

# maps each entry to its pIC50
- System: A-375
- assay comment: Cytotoxicity against human A-375 cells assessed as inhibition of cell growth incubated for 72 hrs by CCK-8 assay
- Type: functional, cell-based
- condition summary: A-375, 72 h
pIC50: −log10 of the molar value.
measured quantity: pIC50

>>> reported("COc1c(C)cnc(Cn2cc(C#CCCn3cc(C(=O)NCCOCCNC(=O)CN4CCN(c5ccc(Nc6ncc7c(C)c(C(C)=O)c(=O)n(C8CCCC8)c7n6)nc5)CC4)nn3)c3c(Cl)nc(N)nc32)c1C")
5.20
>>> reported("COc1c(C)cnc(Cn2cc(C#CCCn3cc(C(=O)NCCOCCOCCNC(=O)CN4CCN(c5ccc(Nc6ncc7c(C)c(C(C)=O)c(=O)n(C8CCCC8)c7n6)nc5)CC4)nn3)c3c(Cl)nc(N)nc32)c1C")
5.74
>>> reported("COc1c(C)cnc(Cn2cc(C#CCCn3cc(C(=O)N4CCN(c5ccc(Nc6ncc7c(C)c(C(C)=O)c(=O)n(C8CCCC8)c7n6)nc5)CC4)nn3)c3c(Cl)nc(N)nc32)c1C")
6.53
>>> reported("COc1c(C)cnc(Cn2cc(C#CCCn3cc(CNC(=O)CN4CCN(c5ccc(Nc6ncc7c(C)c(C(C)=O)c(=O)n(C8CCCC8)c7n6)nc5)CC4)nn3)c3c(Cl)nc(N)nc32)c1C")
6.90
>>> reported("COc1c(C)cnc(Cn2cc(C#CCCNC(=O)CN3CCN(c4ccc(Nc5ncc6c(C)c(C(C)=O)c(=O)n(C7CCCC7)c6n5)nc4)CC3)c3c(Cl)nc(N)nc32)c1C")
6.04
>>> reported("COc1c(C)cnc(Cn2cnc3c(Cl)nc(N)nc32)c1C")
6.60
>>> reported("COc1c(C)cnc(Cn2cc(C#CCCn3cc(C(=O)NCCNC(=O)CN4CCN(c5ccc(Nc6ncc7c(C)c(C(C)=O)c(=O)n(C8CCCC8)c7n6)nc5)CC4)nn3)c3c(Cl)nc(N)nc32)c1C")
5.12
